Target entity: T1, cynomolgus IL4Rα/Fc HIS6 (HEK expressed) (cynomolgus monkey)
T1 construct: also called Cyno IL4R; cynomolgus IL-4Rα HIS Fc (in house HEK-EBNA derived); not shown: HIS6 tag
T1 sequence (chain, as listed by the source): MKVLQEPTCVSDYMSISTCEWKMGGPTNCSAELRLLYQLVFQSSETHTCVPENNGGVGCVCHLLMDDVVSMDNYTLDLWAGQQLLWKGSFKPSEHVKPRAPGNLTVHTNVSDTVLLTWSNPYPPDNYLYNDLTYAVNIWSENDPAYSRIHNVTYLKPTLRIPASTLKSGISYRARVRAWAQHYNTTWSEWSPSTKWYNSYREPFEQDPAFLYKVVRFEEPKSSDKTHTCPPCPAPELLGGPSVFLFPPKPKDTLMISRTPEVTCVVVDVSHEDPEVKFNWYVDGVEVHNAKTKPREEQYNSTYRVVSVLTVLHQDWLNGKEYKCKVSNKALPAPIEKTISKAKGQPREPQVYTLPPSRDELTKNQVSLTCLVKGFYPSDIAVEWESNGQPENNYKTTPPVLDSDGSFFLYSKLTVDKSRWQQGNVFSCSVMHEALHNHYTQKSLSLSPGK
Assay name: HTRF receptor-ligand assay, purified scFv against biotinylated cynomolgus IL4
Reported Ki by item:
Measured attribute: Ki

Antibody 26 scFv (scFv, V domains shown, tested as purified scFv) VH: QVQLVQSGAEVKKPGASVKVSCKASGYAFTSYYMHWARQAPGQGLEWMGIINPSGGSTSYAQKFQGRVTMTRDTSTSTVYMELSSLRSEDTAVYYCARGKYWMYDWGKGTLVTVSS VL: QSVLTQPPSVSAAPGQKVTISCSGGSSNIGNSYVSWYQQLPGTAPKLLIYDNNKRPSGIPDRFSGSKSGTSATLAITGLQTGDEADYFCGTWDTSTVWEWPFGTGTKLTVL; 1.2 nM
Antibody 22 scFv (scFv, V domains shown, tested as purified scFv) VH: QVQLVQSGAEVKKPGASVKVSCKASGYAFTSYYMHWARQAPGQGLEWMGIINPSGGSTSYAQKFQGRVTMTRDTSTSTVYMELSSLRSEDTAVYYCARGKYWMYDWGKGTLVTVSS VL: QPVLTQPPSVSAAPGQKVTISCSGGSSNIGNSYVSWYQQLPGTAPKLLIYDNNKRPSGIPDRFSGSKSGTSATLAITGLQTGDEADYFCGTWDTSTVWEWPFGTGTKLTVL; 2.6 nM
Antibody 12 scFv (scFv, V domains shown, tested as purified scFv) VH: QVQLVQSGAEVKKPGASVKVSCKASGYAFTSYYMHWARQAPGQGLEWMGIINPSGGSTSYAQKFQGRVTMTRDTSTSTVYMELSSLRSEDTAVYYCARGKWWFYDWGKGTLVTVSS VL: QSVLTQPPSVSAAPGQKVTISCSGGSSNIGNSYVSWYQQLPGTAPKLLIYDNNKRPSGIPDRFSGSKSGTSATLAITGLQTGDEADYYCGTWDTSTTMYPLFGTGTKLTVL; 7.2 nM
Antibody 29 scFv (scFv, V domains shown, tested as purified scFv) VH: QVQLVQSGAEVKKPGASVKVSCKASGYAFTSYYMHWARQAPGQGLEWMGIINPSGGSTSYAQKFQGRVTMTRDTSTSTVYMELSSLRSEDTAVYYCARGKYWMYDWGKGTRVTVSS VL: QSVLTQPPSVSAAPGQKVTISCSGGSSNIGNSYVSWYQQLPGTAPKLLIYDNNKRPSGIPDRFSGSKSGTSATLAITGLQTGDEADYYCGTWDTSPVWEWPFGTGTKLTVL; 2.4 nM
Antibody 3 scFv (scFv, V domains shown, tested as purified scFv) VH: QVQLVQSGAEVKKPGASVKVSCKASGYAFTSYYMHWARQAPGQGLEWMGIINPSGGSTSYAQKFQGRVTMTRDTSTSTVYMELSSLRSEDTAVYYCARGKLLKNPWGKGTLVTVSS VL: QSVLTQPPSVSAAPGQKVTISCSGGSSNIGNSYVSWYQQLPGTAPKLLIYDNNKRPSGIPDRFSGSKSGTSATLAITGLQTGDEADYYCGTWFGTPASNYVFGTGTKLTVL; 48 nM
